# Assayed System: hERG (human Ether-a-go-go Related Gene) (Homo sapiens (Human))
# Sequence (Q12809 whole entry): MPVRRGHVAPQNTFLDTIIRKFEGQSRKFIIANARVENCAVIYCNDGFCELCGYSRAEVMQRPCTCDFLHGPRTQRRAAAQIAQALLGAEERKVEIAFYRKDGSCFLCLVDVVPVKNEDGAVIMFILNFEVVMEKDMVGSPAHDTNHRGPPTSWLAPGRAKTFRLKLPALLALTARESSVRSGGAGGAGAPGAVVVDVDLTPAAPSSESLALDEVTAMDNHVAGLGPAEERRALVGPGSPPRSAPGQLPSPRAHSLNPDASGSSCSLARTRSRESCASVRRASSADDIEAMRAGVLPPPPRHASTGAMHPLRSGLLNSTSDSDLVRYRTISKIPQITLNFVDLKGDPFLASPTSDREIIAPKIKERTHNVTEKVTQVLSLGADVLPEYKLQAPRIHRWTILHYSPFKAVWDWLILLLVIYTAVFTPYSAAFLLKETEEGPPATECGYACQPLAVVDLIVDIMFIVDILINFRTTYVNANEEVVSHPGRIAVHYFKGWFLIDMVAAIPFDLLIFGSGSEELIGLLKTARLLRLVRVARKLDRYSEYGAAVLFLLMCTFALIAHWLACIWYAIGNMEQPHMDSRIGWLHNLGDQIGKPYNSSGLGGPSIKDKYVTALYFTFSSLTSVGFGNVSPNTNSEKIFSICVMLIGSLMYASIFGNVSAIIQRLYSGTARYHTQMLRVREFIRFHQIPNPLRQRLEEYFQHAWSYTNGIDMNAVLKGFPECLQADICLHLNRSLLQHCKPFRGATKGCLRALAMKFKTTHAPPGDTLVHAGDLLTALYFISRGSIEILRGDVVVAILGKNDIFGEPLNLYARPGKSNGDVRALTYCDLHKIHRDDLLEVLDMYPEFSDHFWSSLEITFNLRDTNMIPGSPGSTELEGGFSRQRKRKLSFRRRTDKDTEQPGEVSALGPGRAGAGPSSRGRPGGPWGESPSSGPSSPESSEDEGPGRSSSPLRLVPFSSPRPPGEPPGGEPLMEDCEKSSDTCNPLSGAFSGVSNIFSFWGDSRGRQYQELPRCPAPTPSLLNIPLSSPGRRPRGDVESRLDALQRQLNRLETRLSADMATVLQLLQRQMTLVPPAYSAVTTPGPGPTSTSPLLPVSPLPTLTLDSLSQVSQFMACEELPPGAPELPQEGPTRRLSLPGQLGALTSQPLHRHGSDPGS
# Measurement Notes: Test 4: hERG inhibition (QPatch HT, CHO cells stably expressing hERG)
# Setup Conditions: hERG IC50 divided by RS4;11 proliferation IC50
I'd appreciate it if you could supply hERG/RS4; 11 values for the items below.

The examples below pair each entry with its known result.
C=C1C[C@H]2CC[C@@H]1N[C@@H]2C(=O)N1CC2(C1)CN(c1ncncc1Oc1ccc(F)cc1C(=O)N(C(C)C)C(C)C)C2 ... >125
CC(C)N(C(=O)c1cc(F)ccc1Oc1cncnc1N1CC2(CN(C(=O)[C@H]3N[C@H]4CC[C@@H]3[C@@H](F)C4)C2)C1)C(C)C ... >500

From here, focus on the item given below.
Req: Give the value of hERG/RS4; 11 reported for the following: CC(C)N(C(=O)c1cc(F)ccc1Oc1cncnc1N1CC2(CCN(C(=O)[C@H]3N[C@@H]4CC[C@H]3C4)CC2)C1)C(C)C
Resp: >3571

Source: patent US10815241B2
